# System: PRKD3
# details: concentration: 1 μM, replicates: in singlicate; n = 1;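 further: KINOMEscan kinase panel screen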
value_type: %Inh (%)
Answers are plain numbers, in %.

Check out these entries, answers already filled in.
molecule	value_type	experimental_result
COC(=O)Nc1nc2ccc(Oc3ccc(NC(=O)Nc4cc(C(F)(F)F)ccc4F)cc3)cc2[nH]1.Cl [GW654607]	%Inh	15
Fc1cc(Cl)ccc1Nc1ccnc2cc(-c3ccc(CN4CCSCC4)o3)ccc12 [GW560106]	%Inh	0
CN(c1ccc(NC(=O)Nc2cccc(Cl)c2)cc1)c1ccnc(N)n1.Cl [GW830707]	%Inh	0

Please state, for each entry, its recorded %Inh.
1. COc1cc(Nc2ccnc3cc(-c4ccncc4)ccc23)cc(OC)c1OC.Cl [GW494610]
2. CN(C)c1ncnc2nc[nH]c12 [SKF-31736]

Response:
6
0

----------
Assign %Inh to each entry below.
# Test system: MKNK1
# details: concentration: 1 μM, replicates: in singlicate; n = 1
Numbers only, in %.

Examples from the recorded data:
compound	study_system	value_unit	experimental_result
CN(c1ccc(NC(=O)Nc2cccc(Cl)c2)cc1)c1ccnc(N)n1.Cl	MKNK1	%	52
Cn1cc(-c2ccc3c(c2)CCN3C(=O)Cc2cc(F)cc(F)c2F)c2c(N)ncnc21	MKNK1	%	5

Fill in %Inh for each of the 2 compounds listed.
1. COc1cccc2c(-c3ccncc3)c(-c3ccc(F)cc3)nn12
2. CN(c1ccc(F)c(NC(=O)c2cccc(OC(C)(C)C#N)c2Cl)c1)c1ccc2nc(NC(=O)C3CC3)sc2n1

Response:
1: 22; 2: 0

Batch lookup, %Inh per entry.
1. O=C(O)C(F)(F)F.O=c1[nH]ccc2nc(N[C@@H]3CCNC3)nc(Nc3ccc4c(c3)S(=O)(=O)CC4)c12
2. CC(C)c1nc(-c2ccc(F)c(NS(=O)(=O)c3c(F)cccc3F)c2)c(-c2ccnc(Nc3ccc(N4CCOCC4)nc3)n2)s1
3. COc1cccc(NC(=O)NCCNc2ccnc(Nc3ccc(F)cc3)n2)c1
4. O=C(Nc1n[nH]c2nc(-c3ccccc3)ccc12)C1CC1
5. Cc1ccc(-c2ccc3occ(-c4ccc(S(C)=O)cc4)c3c2)nn1 (stereo not drawn)

Response:
1: 3; 2: 21; 3: 12; 4: 30; 5: 0

----------
# Test system: MYLK
# details: concentration: 1 μM, replicates: in singlicate; n = 1
value_type: %Inh (%)
One number for each entry, in %.

Worked cases, %Inh given:
molecule	%Inh [%]
CCn1cnc2c(NCc3ccccc3)ncnc21	0
CCOc1nccc(-c2c(-c3ccc(F)cc3)ncn2C2CCNCC2)n1	31
O=C(Nc1n[nH]c2nc(-c3cccc(O)c3)ccc12)C1CC1	98.4
Cc1cccc(Nc2nc(NCCN)ncc2C(N)=O)c1	8
CC(C)c1nc(-c2cccc(NS(=O)(=O)c3c(F)cccc3F)c2)c(-c2ccnc(Nc3ccc(N4CCOCC4)nc3)n2)s1.Cl	6
CN(c1ccc2c(c1)nc(NCc1ccccc1)n2C)c1ccnc(Nc2ccc(CS(C)(=O)=O)cc2)n1.Cl	8

Fill in %Inh for each of the 2 molecules listed.
1. COC(=O)Nc1nc2ccc(Oc3ccc(NC(=O)Nc4cc(C(F)(F)F)ccc4F)cc3)cc2[nH]1.Cl
2. CC(C)NCC(Cc1ccccc1)NC(=O)c1cc(Br)c(-c2ccnc3[nH]ccc23)s1.Cl.Cl (stereo not drawn)

Response:
[10, 56]

----------
# System: CSF1R-autoinhibited
# details: concentration: 1 μM, replicates: in singlicate; n = 1
value_type: %Inh (%)
Give bare numbers, in %.

Completed entries (count: 3):
compound	experimental_result
CCNC(=O)/C=C/c1n[nH]c2cc(Sc3ccccc3C(=O)NC)ccc12	36
CCn1c(-c2nonc2N)nc2c(-c3ccccc3)ncc(OCCCN)c21.O=C(O)C(F)(F)F.O=C(O)C(F)(F)F	0
Cn1cc(-c2ccc3c(c2)CCN3C(=O)Cc2cc(F)cc(C(F)(F)F)c2)c2c(N)ncnc21	45

Field: %Inh. Fill in for each record below.
1. Cl.Cl.NC(CNC(=O)c1cc(Br)c(-c2ccnc3[nH]ccc23)s1)c1ccccc1 (stereo not drawn)
2. NCCC(NC(=O)c1cc(Br)c(-c2ccnc3[nH]ccc23)s1)c1ccccc1.O=C(O)C(F)(F)F.O=C(O)C(F)(F)F (stereo not drawn)
3. Cc1cc(-c2c(-c3ccc(F)cc3)ncn2CCCN2CCOCC2)nc(N)n1
4. COc1ccc(NC(=O)c2ccoc2)cc1-c1ccc(C(=O)NCC2CC2)cc1
5. N#CC1(c2cccc(C(=O)Nc3cccc(Oc4ccc5nc(NC(=O)C6CC6)sc5n4)c3)c2)CC1
6. O=C(Nc1n[nH]c2nc(-c3ccccc3O)ccc12)C1CC1

Response:
1. 7
2. 43
3. 17
4. 3
5. 87
6. 16

----------
# Tested on: INSR
# details: concentration: 1 μM, replicates: in singlicate; n = 1
Record form. Attribute: %Inh. Fill in for each entry.
One number for each entry, in %.

Answered examples (5):
chem_smiles	value_unit	%Inh
CCNc1nccc(-c2c(-c3ccc(F)cc3)ncn2C2CCN(C)CC2)n1	%	0
Cc1ccc(O)cc1Nc1ccnc2cc(-c3ccc(CN4CCCCC4)o3)ccc12	%	0
CN(c1ccc(NC(=O)N2CCN(CCCN3CCOCC3)CC2)cc1)c1ccnc(Nc2ccc(CS(C)(=O)=O)cc2)n1.Cl	%	0
COc1cccc(C2=C(Nc3cccc(O)c3)C(=O)NC2=O)c1	%	3
Cn1cc(-c2ccc3c(c2)CCN3C(=O)Cc2cc(F)cc(C(F)(F)F)c2)c2c(N)ncnc21	%	31

We now examine a further compound.
Query: Tell me the measured %Inh of CC(C)(C)c1ccc(C(=O)Nc2cn3cc(-n4ccnc4)ccc3n2)cc1 , please.
Response: 26

----------
Give measured %Inh for each item. Keep answers brief.
# System: PHKG1
# details: concentration: 1 μM, replicates: in singlicate; n = 1
Answers are plain numbers, in %.

Some compounds with recorded %Inh:
chem_smiles	study_system	value_unit	%Inh
COC(=O)Nc1nc2cc(Oc3ccc(NC(=O)Nc4cccc(SC)c4)cc3)ccc2[nH]1.Cl	PHKG1	%	3
CN(c1ccc(NC(=O)Nc2cccc(Cl)c2)cc1)c1ccnc(N)n1.Cl	PHKG1	%	23
O=C1NC(=O)C(c2ccccc2Cl)=C1Nc1cccc(Cl)c1	PHKG1	%	0
O=C(O)C(F)(F)F.O=c1[nH]ccc2nc(N[C@@H]3CCNC3)nc(Nc3ccc4c(c3)S(=O)(=O)CC4)c12	PHKG1	%	96.9
Cc1ccc(NC(=O)c2ccc(Cl)c(Cl)c2)cc1-c1ccc(C(=O)Nc2ccncc2)cc1	PHKG1	%	0

Provide the reported %Inh of each entry below, same order.
1. O=C(Nc1n[nH]c2nc(-c3cccc(O)c3)ccc12)C1CC1
2. CS(=O)(=O)c1cccc(CNc2nc(Nc3ccc4c(c3)CCC(=O)N4)ncc2C(F)(F)F)c1
3. CC(C)(C)c1ccc(C(=O)Nc2cn3cc(-n4ccnc4)ccc3n2)cc1
4. Cc1cc(-c2c(-c3ccc(F)cc3)ncn2CCCN2CCOCC2)nc(N)n1
5. COc1ccc(C)c(Nc2ccnc(Nc3ccc(-c4cnc[nH]4)cc3)n2)c1.Cl
6. Cc1nn2c(=O)cc(N3CCO[C@H](C)C3)nc2n1Cc1cccc(Cl)c1Cl
7. Nc1ncc(-c2cn[nH]c2)c2scc(-c3ccc4c(c3)CCN4C(=O)Cc3ccccc3)c12

Response:
1: 0; 2: 0; 3: 40; 4: 12; 5: 0; 6: 0; 7: 0

Below are 5 compounds. Give each one its %Inh.
1. Cc1cccc(Nc2nc(N[C@H]3CCCC[C@H]3N)ncc2C(N)=O)c1.Cl
2. CN(c1ccc(F)c(NC(=O)c2cccc(OC(C)(C)C#N)c2Cl)c1)c1ccc2nc(NC(=O)C3CC3)sc2n1
3. Cn1cc(-c2ccc3c(c2)CCN3C(=O)Cc2cc(F)cc(C(F)(F)F)c2)c2c(N)ncnc21
4. CN1CCN(Cc2ccc(NC(=O)Nc3ccc(N(C)c4ccnc(Nc5ccc(CS(C)(=O)=O)cc5)n4)cc3)cc2)CC1.Cl
5. CN(C)c1ncnc2nc[nH]c12

Response:
[33, 7, 0, 19, 0]

----------
# Test system: CDK11
# Construct: gene CDK19
# details: concentration: 1 μM, replicates: in singlicate; n = 1
Can you tell me %Inh for the items I'm about to list?
Give bare numbers, in %.

chem_smiles	%Inh (%)
O=C(O)C(F)(F)F.O=c1[nH]ccc2nc(N[C@@H]3CCNC3)nc(Nc3cc(Cl)cc(Cl)c3)c12	2

Batch lookup, %Inh per entry.
1. CN(C)CCOc1ccc(-c2cc(-c3ccc(Cl)c(O)c3)c(-c3ccncc3)[nH]2)cc1.Cl.Cl
2. CN(c1ccc2c(c1)nc(NCc1ccccc1)n2C)c1ccnc(Nc2ccc(CS(C)(=O)=O)cc2)n1.Cl
3. Cc1cccc(Nc2nc(NCCN)ncc2C(N)=O)c1

Response:
[6, 24, 0]

Hi there! I need %Inh for each item below, if you can.
1. Cn1cc(-c2ccc3c(c2)CCN3C(=O)Cc2cc(F)cc(C(F)(F)F)c2)c2c(N)ncnc21
2. CC(C)(C)c1ccc(C(=O)Nc2cn3cc(-n4ccnc4)ccc3n2)cc1
3. CCOc1nccc(-c2c(-c3ccc(F)cc3)ncn2C2CCNCC2)n1

Response:
1. 95.2
2. 1
3. 12

For each entry beneath this line, provide reported %Inh.
1. Cc1ccc(O)cc1Nc1ccnc2cc(-c3ccc(CN4CCCCC4)o3)ccc12
2. Cc1ccc(Nc2ccnc(Nc3ccc(C)c(F)c3)n2)cc1O.Cl
3. COc1cccc2c(-c3ccncc3)c(-c3ccc(F)cc3)nn12
4. COc1cccc(CC(=O)N2CCc3cc(-c4cn(C)c5ncnc(N)c45)ccc32)c1

Response:
1: 7; 2: 6; 3: 8; 4: 98.4

Parameters: items (list). Returns: %Inh for each item.
1. O=C(O)C(F)(F)F.O=c1[nH]ccc2nc(N[C@@H]3CCNC3)nc(Nc3ccc4c(c3)S(=O)(=O)CC4)c12
2. Nc1ncc(-c2ccc3nccc(-c4ccncc4)c3c2)cc1S(=O)(=O)N1CCCCC1
3. Cc1cc(-c2ccnc(Nc3cccc(C#N)c3)n2)cc(C)c1O
4. CC(C)c1nc(-c2cccc(NS(=O)(=O)c3c(F)cccc3F)c2)c(-c2ccnc(Nc3ccc(N4CCOCC4)nc3)n2)s1.Cl

Response:
1: 0; 2: 73; 3: 0; 4: 0

Report %Inh for every entry below.
1. Cc1ccc(O)cc1Nc1ccnc2ccc(C(C)(C)C)cc12
2. CC(C)c1nc(-c2ccc(F)c(NS(=O)(=O)c3c(F)cccc3F)c2)c(-c2ccnc(Nc3ccc(N4CCOCC4)nc3)n2)s1

Response:
1: 21; 2: 2
